Biological target: Recombinant human cathepsin S (CatS) (Homo sapiens, UniProt P25774)
Sequence (P25774 115-331): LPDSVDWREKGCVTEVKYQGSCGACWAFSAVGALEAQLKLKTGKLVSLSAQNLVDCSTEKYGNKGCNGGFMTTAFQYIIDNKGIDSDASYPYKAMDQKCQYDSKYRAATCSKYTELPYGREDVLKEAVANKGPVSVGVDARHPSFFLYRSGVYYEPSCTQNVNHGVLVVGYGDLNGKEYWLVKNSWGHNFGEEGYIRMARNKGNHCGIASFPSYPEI
Test: Recombinant human cathepsin S (CatS) inhibition assay, fluorogenic substrate Z-Valine-Valine-Arginine-AMC;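 note: Baculovirus-expressed CatS in pH 5.0 sodium acetate buffer with DTT and NaCl, fluorescence read each minute over 20 min, inhibition derived from rate slope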
Details: CatS IC50
Please respond with reported IC50 for every item in the list.
Answers are plain numbers, in nM.

Challenge: Give IC50 for the following compound: `NC(=O)N1CCc2c(c(-c3ccc(Cl)c(C#Cc4cccc(CNCc5ccccc5F)c4)c3)nn2CCCN2CCSCC2)C1`
Response given: 250

Challenge: # return recorded IC50 for input `CS(=O)(=O)N1CCc2c(c(-c3ccc(Cl)c(C#Cc4ccc(CNCc5ccc(Cl)cc5)cc4)c3)nn2CCCN2CCN(C(=O)c3ccccc3)CC2)C1`
Response given: 60

Switching to the query record.
Challenge: Specify measured IC50 for `C[C@H]1COCCN1CCCn1nc(-c2ccc(Cl)c(C#Cc3ccc(CN(C)Cc4ccc(Cl)cc4)cc3)c2)c2c1CCN(S(C)(=O)=O)C2` .
Response given: 580
